# Test system: mice
# assay.details: Neuropharmacological Assay (SmartCube)
# Format: in vivo
# measurement.context: mice, i.p. 15 min before test, most efficacious dose(s) of 3 doses
value.kind: CE: cognitive enhancer (SmartCube probability)

A selection of reference data follows.
{"molecule": "CNC[C@@H]1OCCc2c1cccc2C(F)(F)F", "subject.of.test": "mice", "measured.value": "+ (LOQ≤ + <5%)"}
{"molecule": "CNC[C@@H]1OCCc2ccc(F)cc21", "subject.of.test": "mice", "measured.value": "++ (5%≤ ++ <25%)"}
{"molecule": "CNC[C@H]1OCCc2cc(Cl)ccc21", "subject.of.test": "mice", "measured.value": "++ (5%≤ ++ <25%)"}
{"molecule": "CNC[C@H]1OCC(F)(F)c2ccccc21", "subject.of.test": "mice", "measured.value": "++ (5%≤ ++ <25%)"}
{"molecule": "CNC[C@@H]1OCCc2c1ccc1c2OCO1", "subject.of.test": "mice", "measured.value": "+ (LOQ≤ + <5%)"}
{"molecule": "NC[C@@H]1OCCc2cccc(F)c21 [Example 35, (R)-(8-fluoroisochroman-1-yl)methanamine]", "subject.of.test": "mice", "measured.value": "++ (5%≤ ++ <25%)"}
{"molecule": "CNC[C@@H]1OC[C@H](F)c2ccccc21", "subject.of.test": "mice", "measured.value": "++ (5%≤ ++ <25%)"}
{"molecule": "CNC[C@H]1OCC(C)(C)c2ccccc21", "subject.of.test": "mice", "measured.value": "++ (5%≤ ++ <25%)"}

Query: Consider the molecule NC[C@H]1OCCc2c(Cl)cccc21 [Example 66, (S)-(5-chloroisochroman-1-yl)methanamine] and give its measured CE: cognitive enhancer (SmartCube probability).
Result: + (LOQ≤ + <5%)

Query: GET /values?readout=CE: cognitive enhancer (SmartCube probability)&item= "CNC[C@@H]1OCCc2c(F)ccc(F)c21"
Result: ++ (5%≤ ++ <25%)

Query: Query (molecule): "CNC[C@@H]1OCCc2cccc(Cl)c21" ; field requested: CE: cognitive enhancer (SmartCube probability)
Result: ++ (5%≤ ++ <25%)

Query: # lookup: CE: cognitive enhancer (SmartCube probability) of "CNC[C@H]1OCCc2cccc(C)c21"
Result: + (LOQ≤ + <5%)

----------
# System: mice
# assay.details: Neuropharmacological Assay (SmartCube)
# Format: in vivo
# measurement.context: mice, i.p. 15 min before test, most efficacious dose(s) of 3 doses
value.kind: AX: anxiolytic (SmartCube probability)

Example compounds with recorded AX: anxiolytic (SmartCube probability):
{"compound": "CNC[C@@H]1OCc2c(Cl)cccc21", "measured.value": "+++ (25%≤ +++ <50%)"}
{"compound": "CNC[C@H]1OCCc2cc3c(cc21)OCO3 (stereo in doubt)", "measured.value": "++ (5%≤ ++ <25%)"}
{"compound": "NC[C@@H]1OCCc2c(F)cccc21 [Example 29, (R)-(5-fluoroisochroman-1-yl)methanamine]", "measured.value": "++ (5%≤ ++ <25%)"}
{"compound": "CNC[C@@H]1OCCc2c(OC)cccc21", "measured.value": "++ (5%≤ ++ <25%)"}
{"compound": "CNC[C@@H]1OCCc2cc3c(cc21)OCO3 (stereo in doubt)", "measured.value": "++ (5%≤ ++ <25%)"}

Query compound follows.
Query: Value lookup for AX: anxiolytic (SmartCube probability); key = "CNC[C@H]1OCCc2ccc(Cl)cc21"
Result: +++ (25%≤ +++ <50%)

----------
# Test system: mice
# assay.details: Neuropharmacological Assay (SmartCube)
# Format: in vivo
# measurement.context: mice, i.p. 15 min before test, most efficacious dose(s) of 3 doses
value.kind: PS: anti-psychotic (SmartCube probability)

{"compound": "CNC[C@@H]1OCCc2cccc(F)c21", "measured.value": "++ (5%≤ ++ <25%)"}
{"compound": "CNC[C@@H]1OCCc2cc3c(cc21)OCO3 (stereo in doubt)", "measured.value": "++ (5%≤ ++ <25%)"}
{"compound": "CNC[C@H]1OCCCc2cccc(F)c21", "measured.value": "++ (5%≤ ++ <25%)"}
{"compound": "CNC[C@@H]1OCCc2cccc(C#N)c21", "measured.value": "++ (5%≤ ++ <25%)"}

----------
# Test system: mice
# assay.details: Neuropharmacological Assay (SmartCube)
# Assay type: in vivo
# measurement.context: Mus musculus, read-out: POTENCY (minimal effective dose, MED)
Provide the reported minimal effective dose of each item.

Query: So what's the measured minimal effective dose for this one? "Fc1cccc2c1[C@H](CNC1CCC1)OCC2"
Result: 3 to 10 mg/kg

Query: Name the recorded minimal effective dose for "Fc1cccc2c1[C@@H](CNC1CCC1)OCC2" .
Result: 10 to 30 mg/kg

Query: // lookup minimal effective dose for "CNC[C@H]1OCCc2ccc3c(c21)OCO3"
Result: < 3 mg/kg

Query: So what does the record say about minimal effective dose for "CNC[C@@H]1OCCc2ccc3c(c21)OCO3" ?
Result: < 3 mg/kg

----------
# System: mice
# assay.details: Neuropharmacological Assay (SmartCube)
# Assay type: in vivo
# measurement.context: mice, i.p. 15 min before test, most efficacious dose(s) of 3 doses
value.kind: DP: anti-depressant (SmartCube probability)

Below, each entry is followed by its recorded DP: anti-depressant (SmartCube probability) result.
{"compound": "CNC[C@@H]1OCc2c(Cl)cccc21", "subject.of.test": "mice", "measured.value": "++ (5%≤ ++ <25%)"}
{"compound": "NC[C@@H]1OCCc2c1ccc1c2OCO1", "subject.of.test": "mice", "measured.value": "++++ (50%≤ ++++)"}
{"compound": "CNC[C@@H]1OCCc2ccc3c(c21)OCO3", "subject.of.test": "mice", "measured.value": "+++ (25%≤ +++ <50%)"}
{"compound": "CNC[C@H]1OCCc2ccc3c(c21)OCCO3", "subject.of.test": "mice", "measured.value": "+++ (25%≤ +++ <50%)"}

Query: GET /values?readout=DP: anti-depressant (SmartCube probability)&item= "CNC[C@H]1OCC(C)(C)c2ccccc21"
Result: ++ (5%≤ ++ <25%)

Query: Return reported DP: anti-depressant (SmartCube probability); argument: "CNC[C@H]1OCCc2cccc(F)c21"
Result: +++ (25%≤ +++ <50%)

Query: Using the record for "CNC[C@H]1OCCc2c1cccc2C(F)(F)F" , report its DP: anti-depressant (SmartCube probability).
Result: ++ (5%≤ ++ <25%)

Query: Given the compound "CNC[C@H]1OCCc2cc(Cl)ccc21" , what is its reported DP: anti-depressant (SmartCube probability)?
Result: ++ (5%≤ ++ <25%)

Query: I am curious: what DP: anti-depressant (SmartCube probability) value has been reported for "CNC[C@@H]1OCCc2ccc(F)cc21" ?
Result: ++ (5%≤ ++ <25%)

Query: Fill in the blank: the reported DP: anti-depressant (SmartCube probability) of NC[C@H]1OCCc2c(Cl)cccc21 [Example 66, (S)-(5-chloroisochroman-1-yl)methanamine] is ____.
Result: ++++ (50%≤ ++++)

----------
# System: mice
# assay.details: Neuropharmacological Assay (SmartCube)
# Format: in vivo
# measurement.context: mice, i.p. 15 min before test, most efficacious dose(s) of 3 doses
value.kind: CE: cognitive enhancer (SmartCube probability)

Guide cases for CE: cognitive enhancer (SmartCube probability), answers given:
{"compound": "CNC[C@@H]1OCCc2ccc3c(c21)CCO3 [Example 107]", "measured.value": "+ (LOQ≤ + <5%)"}
{"compound": "CNC[C@H]1OCCc2ccc3c(c21)OCCO3 [Example 9]", "measured.value": "+ (LOQ≤ + <5%)"}
{"compound": "CNC[C@H]1OCCc2ccc3c(c21)CCO3 [Example 108]", "measured.value": "+ (LOQ≤ + <5%)"}
{"compound": "CNC[C@H]1OCCc2cccc(Cl)c21 [Example 36]", "measured.value": "++ (5%≤ ++ <25%)"}
{"compound": "CNC[C@@H]1OCCc2c(OC)cccc21 [Example 63]", "measured.value": "+ (LOQ≤ + <5%)"}
{"compound": "CNC[C@H]1OCCc2c(Cl)cccc21 [Example 32]", "measured.value": "++ (5%≤ ++ <25%)"}

Query: Returns the measured CE: cognitive enhancer (SmartCube probability) for the input compound. Input: CNC[C@H]1OCCc2c(F)cccc21 [Example 18]
Result: ++ (5%≤ ++ <25%)

Query: Quick one: CE: cognitive enhancer (SmartCube probability) of NC[C@@H]1OCCc2cccc(Cl)c21 [Example 71, (R)-(8-chloroisochroman-1-yl)methanamine] ?
Result: ++ (5%≤ ++ <25%)

Query: What value of measured CE: cognitive enhancer (SmartCube probability) is listed for CNC[C@@H]1OC[C@H](O)c2cccc(F)c21 [Example 99] ?
Result: + (LOQ≤ + <5%)

Query: Look at this compound and give its reported CE: cognitive enhancer (SmartCube probability). CNC[C@H]1OC[C@@H](O)c2ccc3c(c21)OCO3 (single isomer, unassigned) [Example 113]
Result: + (LOQ≤ + <5%)

Query: Recorded CE: cognitive enhancer (SmartCube probability) of CNC[C@H]1OCCc2ccc(F)cc21 [Example 13] , please.
Result: + (LOQ≤ + <5%)

Query: What value of CE: cognitive enhancer (SmartCube probability) has been reported for the following compound? CNC[C@@H]1OCCc2ccc3c(c21)COC3 [Example 109]
Result: + (LOQ≤ + <5%)

Query: What does the record list as CE: cognitive enhancer (SmartCube probability) for CNC[C@@H]1OCCc2ccc(Cl)cc21 [Example 65] ?
Result: + (LOQ≤ + <5%)

Query: I have this compound here, NC[C@@H]1OCCc2c(F)cccc21 [Example 29, (R)-(5-fluoroisochroman-1-yl)methanamine] , and I need its recorded CE: cognitive enhancer (SmartCube probability).
Result: ++ (5%≤ ++ <25%)

These entries and their values trace back to patent US10196403B2.
